# Procedure Summary: Solubility studies of the activators (saturated solution in isohexane or methylcyclohexane)
# Assay type: physicochemical
# Condition Label: isohexane
Readout Kind: Solubility limit in i-hexane (wt % at 25° C.) (wt %)

Recorded result, CCCCCCCCCCCCCCCCCC[NH+](CCCCCCCCCCCCCCCCCC)c1c(C)cc(C)cc1C.Fc1c(F)c(F)c2c(F)c([B-](c3c(F)c(F)c4c(F)c(F)c(F)c(F)c4c3F)(c3c(F)c(F)c4c(F)c(F)c(F)c(F)c4c3F)c3c(F)c(F)c4c(F)c(F)c(F)c(F)c4c3F)c(F)c(F)c2c1F , Solubility limit in i-hexane (wt % at 25° C.): 0.70

P. CCCCCCCCCCCCCCCCCC[NH+](CCCCCCCCCCCCCCCCCC)c1ccccc1C.Fc1c(F)c(F)c2c(F)c([B-](c3c(F)c(F)c4c(F)c(F)c(F)c(F)c4c3F)(c3c(F)c(F)c4c(F)c(F)c(F)c(F)c4c3F)c3c(F)c(F)c4c(F)c(F)c(F)c(F)c4c3F)c(F)c(F)c2c1F
Q. CCCCCCCCCC[NH+](CCCCCCCCCC)c1ccc(CCCC)cc1.Fc1c(F)c(F)c([B-](c2c(F)c(F)c(F)c(F)c2F)(c2c(F)c(F)c(F)c(F)c2F)c2c(F)c(F)c(F)c(F)c2F)c(F)c1F
Of P versus Q , which is the one with smaller reported Solubility limit in i-hexane (wt % at 25° C.)? Could you answer with the label of the item you picked?
Q
(Q: 0.32 wt %, P: 0.73 wt %)

* * *

# Procedure Summary: Solubility studies of the activators (saturated solution in isohexane or methylcyclohexane)
# Assay type: physicochemical
# Condition Label: methylcyclohexane
Readout Kind: Solubility limit in MeCy (mM at 25° C.) (mM)
Provide the reading as a plain figure in mM.

// Solubility limit in MeCy (mM at 25° C.) lookup, molecule = CCCCCCCCCCCCCCCCCC[NH+](CCCCCCCCCCCCCCCCCC)c1ccc(C)cc1.Fc1c(F)c(F)c2c(F)c([B-](c3c(F)c(F)c4c(F)c(F)c(F)c(F)c4c3F)(c3c(F)c(F)c4c(F)c(F)c(F)c(F)c4c3F)c3c(F)c(F)c4c(F)c(F)c(F)c(F)c4c3F)c(F)c(F)c2c1F , result: 160

* * *

# Procedure Summary: Solubility studies of the activators (saturated solution in isohexane or methylcyclohexane)
# Format: physicochemical
# Condition Label: methylcyclohexane
Readout Kind: Solubility limit in MeCy (wt % at 25° C.) (wt %)

Check out these entries, answers already filled in.
According to the records, this compound CCCCCCCCCC[NH+](CCCCCCCCCC)c1ccc(C)cc1.Fc1c(F)c(F)c2c(F)c([B-](c3c(F)c(F)c4c(F)c(F)c(F)c(F)c4c3F)(c3c(F)c(F)c4c(F)c(F)c(F)c(F)c4c3F)c3c(F)c(F)c4c(F)c(F)c(F)c(F)c4c3F)c(F)c(F)c2c1F displays Solubility limit in MeCy (wt % at 25° C.) of 0.63

Per the record, CCCCCCCCCC[NH+](C)c1ccccc1.Fc1c(F)c(F)c([B-](c2c(F)c(F)c(F)c(F)c2F)(c2c(F)c(F)c(F)c(F)c2F)c2c(F)c(F)c(F)c(F)c2F)c(F)c1F has Solubility limit in MeCy (wt % at 25° C.) of 0.17

1. CCCCCCCCCCCCCCCCCC[NH+](CCCCCCCCCCCCCCCCCC)c1ccc(C)cc1.Fc1c(F)c(F)c2c(F)c([B-](c3c(F)c(F)c4c(F)c(F)c(F)c(F)c4c3F)(c3c(F)c(F)c4c(F)c(F)c(F)c(F)c4c3F)c3c(F)c(F)c4c(F)c(F)c(F)c(F)c4c3F)c(F)c(F)c2c1F
2. CCCCCCCCCC[NH+](CCCCCCCCCC)c1ccc(CCCC)cc1.Fc1c(F)c(F)c2c(F)c([B-](c3c(F)c(F)c4c(F)c(F)c(F)c(F)c4c3F)(c3c(F)c(F)c4c(F)c(F)c(F)c(F)c4c3F)c3c(F)c(F)c4c(F)c(F)c(F)c(F)c4c3F)c(F)c(F)c2c1F
Which entry shows the lesser value of Solubility limit in MeCy (wt % at 25° C.) here, 1 or 2 ? Return value: the label identifying the chosen record.
2
(2: 3.3 wt %, 1: 35 wt %)

* * *

# Procedure Summary: Solubility studies of the activators (saturated solution in isohexane or methylcyclohexane)
# Type: physicochemical
# Condition Label: methylcyclohexane
Readout Kind: Solubility limit in MeCy (wt % at 25° C.) (wt %)

1. CCCCCCCCCC[NH+](CCCCCCCCCC)c1ccc(CCCC)cc1.Fc1c(F)c(F)c([B-](c2c(F)c(F)c(F)c(F)c2F)(c2c(F)c(F)c(F)c(F)c2F)c2c(F)c(F)c(F)c(F)c2F)c(F)c1F
2. CCCCCCCCCCCCCCCCCCc1ccc([NH+](C)C)cc1.Fc1c(F)c(F)c2c(F)c([B-](c3c(F)c(F)c4c(F)c(F)c(F)c(F)c4c3F)(c3c(F)c(F)c4c(F)c(F)c(F)c(F)c4c3F)c3c(F)c(F)c4c(F)c(F)c(F)c(F)c4c3F)c(F)c(F)c2c1F
Which of these two has the smaller recorded Solubility limit in MeCy (wt % at 25° C.): 1 or 2 ? // return label of chosen record
2

* * *

# Procedure Summary: Solubility studies of the activators (saturated solution in isohexane or methylcyclohexane)
# Format: physicochemical
# Condition Label: methylcyclohexane
Readout Kind: Solubility limit in MeCy (mM at 25° C.) (mM)

Examples with their reported Solubility limit in MeCy (mM at 25° C.) follow.
Measured Solubility limit in MeCy (mM at 25° C.) of CCCCCCCCCCCCCCCCCCc1ccc([NH+](C)C)cc1.Fc1c(F)c(F)c2c(F)c([B-](c3c(F)c(F)c4c(F)c(F)c(F)c(F)c4c3F)(c3c(F)c(F)c4c(F)c(F)c(F)c(F)c4c3F)c3c(F)c(F)c4c(F)c(F)c(F)c(F)c4c3F)c(F)c(F)c2c1F [OdDMAH-BF28] : 1.9

Entry CCCCCCCCCC[NH+](C)c1ccccc1.Fc1c(F)c(F)c2c(F)c([B-](c3c(F)c(F)c4c(F)c(F)c(F)c(F)c4c3F)(c3c(F)c(F)c4c(F)c(F)c(F)c(F)c4c3F)c3c(F)c(F)c4c(F)c(F)c(F)c(F)c4c3F)c(F)c(F)c2c1F [MDAH-BF28, N-decyl-N-methylanilinium-BF28] ; Solubility limit in MeCy (mM at 25° C.) = 1.7

The value of Solubility limit in MeCy (mM at 25° C.) measured for the compound CCCCCCCCCC[NH+](CCCCCCCCCC)c1ccc(C)cc1.Fc1c(F)c(F)c2c(F)c([B-](c3c(F)c(F)c4c(F)c(F)c(F)c(F)c4c3F)(c3c(F)c(F)c4c(F)c(F)c(F)c(F)c4c3F)c3c(F)c(F)c4c(F)c(F)c(F)c(F)c4c3F)c(F)c(F)c2c1F [DDTH-BF28, N,N-didecyl-4-methylanilinium-BF28] turned out to be 3.7

1. CCCCCCCCCC[NH+](CCCCCCCCCC)c1ccc(C)cc1.Fc1c(F)c(F)c([B-](c2c(F)c(F)c(F)c(F)c2F)(c2c(F)c(F)c(F)c(F)c2F)c2c(F)c(F)c(F)c(F)c2F)c(F)c1F [DDTH-BF20, N,N-didecyl-4-methylanilinium-BF20]
2. CCCCCCCCCCCCCCCCCCc1ccc([NH+](C)C)cc1.Fc1c(F)c(F)c([B-](c2c(F)c(F)c(F)c(F)c2F)(c2c(F)c(F)c(F)c(F)c2F)c2c(F)c(F)c(F)c(F)c2F)c(F)c1F [OdDMAH-BF20]
3. CCCCCCCCCC[NH+](CCCCCCCCCC)c1ccc(CCCC)cc1.Fc1c(F)c(F)c([B-](c2c(F)c(F)c(F)c(F)c2F)(c2c(F)c(F)c(F)c(F)c2F)c2c(F)c(F)c(F)c(F)c2F)c(F)c1F [DDBAH-BF20, 4-butyl-N,N-didecylbenzenaminium-BF20]
Arrange these 3 compounds in increasing order of Solubility limit in MeCy (mM at 25° C.). Your answer should be the labels, listed in the requested order.
1, 2, 3

* * *

# Procedure Summary: Solubility studies of the activators (saturated solution in isohexane or methylcyclohexane)
# Format: physicochemical
# Condition Label: isohexane
Readout Kind: Solubility limit in i-hexane (wt % at 25° C.) (wt %)

Known results for molecules:
Recorded result, CCCCCCCCCC[NH+](CCCCCCCCCC)c1ccc(C)cc1.Fc1c(F)c(F)c([B-](c2c(F)c(F)c(F)c(F)c2F)(c2c(F)c(F)c(F)c(F)c2F)c2c(F)c(F)c(F)c(F)c2F)c(F)c1F , Solubility limit in i-hexane (wt % at 25° C.): 0.22

Data point: CCCCCCCCCC[NH+](CCCCCCCCCC)c1ccc(CCCC)cc1.Fc1c(F)c(F)c2c(F)c([B-](c3c(F)c(F)c4c(F)c(F)c(F)c(F)c4c3F)(c3c(F)c(F)c4c(F)c(F)c(F)c(F)c4c3F)c3c(F)c(F)c4c(F)c(F)c(F)c(F)c4c3F)c(F)c(F)c2c1F ; Solubility limit in i-hexane (wt % at 25° C.) = 0.47

1. CCCCCCCCCC[NH+](C)c1ccccc1.Fc1c(F)c(F)c2c(F)c([B-](c3c(F)c(F)c4c(F)c(F)c(F)c(F)c4c3F)(c3c(F)c(F)c4c(F)c(F)c(F)c(F)c4c3F)c3c(F)c(F)c4c(F)c(F)c(F)c(F)c4c3F)c(F)c(F)c2c1F
2. CCCCCCCCCCCCCCCCCC[NH+](CCCCCCCCCCCCCCCCCC)c1ccc(C)cc1.Fc1c(F)c(F)c([B-](c2c(F)c(F)c(F)c(F)c2F)(c2c(F)c(F)c(F)c(F)c2F)c2c(F)c(F)c(F)c(F)c2F)c(F)c1F
Please indicate which item has the smaller measured Solubility limit in i-hexane (wt % at 25° C.): 1 versus 2 Respond using the label that marks the chosen record.
1
(1: 0.12 wt %, 2: 3.7 wt %)
